Just for reference, patent US20260083865A1 is where these values come from.

- Experimental Target: Fc-fusion protein of human PSMA (hPSMA-Fc) (Homo sapiens, UniProt Q04609)
- Construct: purchased Acro Biosystems PSA-H5264
- Sequence (Q04609 44-750 limits assumed): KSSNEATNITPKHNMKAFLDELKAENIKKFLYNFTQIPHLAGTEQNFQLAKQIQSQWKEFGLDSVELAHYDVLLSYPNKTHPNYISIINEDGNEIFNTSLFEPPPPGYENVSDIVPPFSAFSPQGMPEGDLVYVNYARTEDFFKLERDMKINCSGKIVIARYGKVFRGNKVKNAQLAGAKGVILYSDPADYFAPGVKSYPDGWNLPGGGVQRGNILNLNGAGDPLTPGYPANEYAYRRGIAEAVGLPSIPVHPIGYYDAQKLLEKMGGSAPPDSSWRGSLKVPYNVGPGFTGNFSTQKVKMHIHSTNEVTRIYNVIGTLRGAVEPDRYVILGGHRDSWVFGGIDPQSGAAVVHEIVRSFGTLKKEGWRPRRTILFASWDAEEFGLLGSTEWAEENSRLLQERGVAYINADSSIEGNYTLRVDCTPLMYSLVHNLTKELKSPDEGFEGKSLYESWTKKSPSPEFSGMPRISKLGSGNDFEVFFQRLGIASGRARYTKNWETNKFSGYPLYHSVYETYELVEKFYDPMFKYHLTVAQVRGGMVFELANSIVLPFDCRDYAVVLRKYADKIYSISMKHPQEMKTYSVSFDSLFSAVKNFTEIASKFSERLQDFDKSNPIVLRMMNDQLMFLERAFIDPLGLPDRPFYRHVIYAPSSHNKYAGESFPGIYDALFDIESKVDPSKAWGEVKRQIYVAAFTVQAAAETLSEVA
- Experiment Summary: Surface plasmon resonance assay (Biacore T200, single cycle kinetic)
- Assay type: binding
- Conditions: PSMA SPR assay, hPSMA-Fc, 25° C.; pKD category; read-out: pKD CAT (converted)
Numbered stars: 1 amine (or outer) side, 2 acyl side, 3 side chain; on linkers, the order of the positions; unused ones are H or OH. Bridge positions count the residues as written; N and C are the ends. Square brackets hold non-standard residues; d marks the D form. Side chains are listed from the residue outwards. Peptide text beside a SMILES is read from it. * marks the point of attachment. ξ: configuration not given here. TtdsdLys(DOTA)NH2 = NC(=O)[C@@H](CCCCNC(=O)CN1CCN(CC(=O)O)CCN(CC(=O)O)CCN(CC(=O)O)CC1)NC(=O)CCC(=O)NCCCOCCOCCOCCCN*; X3 = O=C(O)CN1CCN(CC(=O)O)CCN(CC(=O)NCCCOCCOCCOCCCN*)CCN(CC(=O)O)CC1; X2 = O=C(O)CN1CCN(CC(=O)O)CCN([C@H](CCC(=O)*)C(=O)O)CCN(CC(=O)O)CC1; DOTA = O=C(O)CN1CCN(CC(=O)O)CCN(CC(=O)*)CCN(CC(=O)O)CC1; Phe(3,4-Cl2) = N[C@@H](Cc1ccc(Cl)c(Cl)c1)C(=O)O; Phe(3-Cl) = N[C@@H](Cc1cccc(Cl)c1)C(=O)O; Phe(4-Cl) = N[C@@H](Cc1ccc(Cl)cc1)C(=O)O; X1 = O=C(CC1CCN([*:1])CC1)[*:2]; Cit = NC(=O)NCCC[C@H](N)C(=O)O; Suc = O=C(CCC(=O)[*:2])[*:1]; Tle = CC(C)(C)[C@H](N)C(=O)O; Api = NC1(C(=O)O)CCNCC1; AEEA = NCCOCCOCC(=O)O; ξL = CC(C)CC(N)C(=O)O; Aib = CC(C)(N)C(=O)O
Readout: Kd

| Molecule | Value |
| --- | --- |
| CC(=O)N[C@H](C(=O)NC(C)(C)C(=O)N[C@@H](Cc1ccccc1)C(=O)N[C@H]1CSSC[C@@H](C(=O)N[C@H](C(=O)N[C@H](C(=O)N[C@@H](CC(=O)O)C(N)=O)[C@@H](C)O)C(C)(C)C)NC(=O)[C@H](CC(N)=O)NC(=O)[C@H](C)NC(=O)[C@H](CCCNC(=N)N)NC(=O)[C@H](CCCCN)NC1=O)[C@@H](C)O [PSM-0315] (Ac-T[Aib]FCKRANC[Tle]TD-NH2; disulfide 4-9) | 12.6 to 126 nM |
| CC(=O)N[C@H](C(=O)NC(C)(C)C(=O)N[C@@H](Cc1ccccc1)C(=O)N[C@H]1CSSC[C@@H](C(=O)N[C@H](C(=O)N[C@H](C(N)=O)[C@@H](C)O)C(C)(C)C)NC(=O)[C@H](CC(N)=O)NC(=O)C2(CCN(C(=O)CN3CCN(CC(=O)O)CCN(CC(=O)O)CCN(CC(=O)O)CC3)CC2)NC(=O)[C@H](CCCNC(=N)N)NC(=O)[C@H](CCCCN)NC1=O)[C@@H](C)O [PSM-0321] (Ac-T[Aib]FCKR[Api](DOTA)NC[Tle]T-NH2; disulfide 4-9) | < 12.6 nM |
| CC(=O)N[C@H](C(=O)NC(C)(C)C(=O)N[C@@H](Cc1ccccc1)C(=O)N[C@@H]1CSSC[C@@H](C(=O)N[C@H](C(=O)N[C@H](C(N)=O)[C@@H](C)O)C(C)(C)C)NC(=O)[C@H](CC(N)=O)NC(=O)C(C)(C)NC(=O)[C@H](CCCNC(=N)N)NC(=O)[C@H](CCCCN)NC1=O)[C@@H](C)O [PSM-0348] (Ac-T[Aib]F[dC]KR[Aib]NC[Tle]T-NH2; disulfide 4-9) | > 501 nM |
| CC(=O)N[C@H](C(=O)NC(C)(C)C(=O)N[C@@H](Cc1cccc(Cl)c1)C(=O)N[C@H]1CSSC[C@@H](C(=O)N[C@H](C(=O)N[C@H](C(N)=O)[C@@H](C)O)C(C)(C)C)NC(=O)[C@H](CC(N)=O)NC(=O)[C@H](CCCCNC(=O)COCCOCCNC(=O)CN2CCN(CC(=O)O)CCN(CC(=O)O)CCN(CC(=O)O)CC2)NC(=O)[C@H](CCCNC(N)=O)NC(=O)[C@H](CCCCN)NC1=O)[C@@H](C)O [PSM-0284] (Ac-T[Aib][Phe(3-Cl)]CK[Cit]K([AEEA-DOTA])NC[Tle]T-NH2; disulfide 4-9) | 12.6 to 126 nM |
| CC(=O)N[C@H](C(=O)NC(C)(C)C(=O)N[C@@H](Cc1cccc(Cl)c1)C(=O)N[C@H]1CSSC[C@@H](C(=O)N[C@H](C(=O)N[C@H](C(N)=O)[C@@H](C)O)C(C)(C)C)NC(=O)[C@H](CC(N)=O)NC(=O)[C@H](CCCCNC(=O)COCCOCCNC(=O)CC[C@H](C(=O)O)N2CCN(CC(=O)O)CCN(CC(=O)O)CCN(CC(=O)O)CC2)NC(=O)[C@H](CCCNC(=N)N)NC(=O)[C@H](CCCCN)NC1=O)[C@@H](C)O [PSM-0301] (Ac-T[Aib][Phe(3-Cl)]CKRK([AEEA-X2])NC[Tle]T-NH2; disulfide 4-9) | < 12.6 nM |
| CC(=O)NC(C)(C)C(=O)N[C@@H](Cc1ccc(Cl)cc1)C(=O)N[C@H]1CSSC[C@@H](C(=O)N[C@H](C(=O)N[C@H](C(=O)N2CCC(CC(=O)N[C@H](CCCCNC(=O)CN3CCN(CC(=O)O)CCN(CC(=O)O)CCN(CC(=O)O)CC3)C(N)=O)CC2)[C@@H](C)O)C(C)(C)C)NC(=O)[C@H](CC(N)=O)NC(=O)C(C)(C)NC(=O)[C@H](CCCNC(=N)N)NC(=O)[C@H](CCCCN)NC1=O [PSM-0349] (Ac-[Aib][Phe(4-Cl)]CKR[Aib]NC[Tle]T[X1][dK](DOTA)-NH2; disulfide 3-8) | < 12.6 nM |
| C[C@@H](O)[C@H](NC(=O)[C@@H](NC(=O)[C@@H]1CSSC[C@H](NC(=O)[C@H](Cc2ccc(Cl)c(Cl)c2)NC(=O)C(C)(C)NC(=O)[C@@H](NC(=O)CC2CCN(C(=O)CN3CCN(CC(=O)O)CCN(CC(=O)O)CCN(CC(=O)O)CC3)CC2)[C@@H](C)O)C(=O)N[C@@H](CCCCN)C(=O)N[C@@H](CCCNC(N)=O)C(=O)NC(C)(C)C(=O)N[C@@H](CC(N)=O)C(=O)N1)C(C)(C)C)C(N)=O [PSM-0274] ({DOTA}-[X1]T[Aib][Phe(3,4-Cl2)]CK[Cit][Aib]NC[Tle]T-NH2; disulfide 5-10) | 12.6 to 126 nM |
| CC(=O)N[C@H](C(=O)NC(C)(C)C(=O)N[C@@H](Cc1ccccc1)C(=O)N[C@H]1CSSC[C@@H](C(=O)N[C@H](C(=O)N[C@H](C(=O)N[C@@H](CC(=O)O)C(=O)NCCCOCCOCCOCCCNC(=O)CCC(=O)N[C@H](CCCCNC(=O)CN2CCN(CC(=O)O)CCN(CC(=O)O)CCN(CC(=O)O)CC2)C(N)=O)[C@@H](C)O)C(C)(C)C)NC(=O)[C@H](CC(N)=O)NC(=O)[C@H](C)NC(=O)[C@H](CCCNC(=N)N)NC(=O)[C@H](CCCCN)NC1=O)[C@@H](C)O [PSM-0295] (Ac-T[Aib]FCKRANC[Tle]TD-{TtdsdLys(DOTA)NH2}; disulfide 4-9) | < 12.6 nM |
| CC(C)CC(NC(=O)[C@@H]1CSSC[C@H](NC(=O)[C@H](Cc2ccccc2)NC(=O)[C@H](C)NC(=O)[C@@H](NC(=O)CCC(=O)NCCCOCCOCCOCCCNC(=O)CN2CCN(CC(=O)O)CCN(CC(=O)O)CCN(CC(=O)O)CC2)[C@@H](C)O)C(=O)N[C@@H](CCCCN)C(=O)N[C@@H](CCCNC(=N)N)C(=O)N[C@@H](C)C(=O)N[C@@H](CC(N)=O)C(=O)N1)C(=O)N[C@H](C(N)=O)[C@@H](C)O (stereo partly drawn) [PSM-0305] ({X3-Suc}-TAFCKRANC[ξL]T-NH2; disulfide 4-9) | 126 to 501 nM |
